experimentDescription: qHTS assay to identify small molecule antagonists of the estrogen receptor alpha (ER-alpha) signaling pathway - cell viability counter screen (AID 743074);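 note: HEK293 cells carrying ER-alpha-UAS-bla reporter stimulated with 17beta-estradiol; nearly all actives have a fitted effect of over 45% in size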
conditionSummary: ERalpha-bla HEK293 viability, CellTiter-Glo luminescence, 18 h; series mostly up to 69.4 µM
Inconclusive results are not listed. Active and inactive are the calls of the source. Calls come from the whole dose curve.
# valid calls are active, inactive; nothing else

Worked examples follow.
CC(C)(C)C(=O)OCOC(=O)C1N2C(=O)CC2S(=O)(=O)C1(C)C (stereo unspecified) :: inactive
CC(=O)S[C@@H]1CC2=CC(=O)CC[C@]2(C)[C@H]2CC[C@@]3(C)[C@@H](CC[C@@]34CCC(=O)O4)[C@H]12 :: inactive
CCCCCCCC/C=C\CCCCCCCCOCCO :: active
O=[N+]([O-])c1ccccc1Nc1ccccc1 :: inactive
CCC(N)(CO)CO :: inactive

In: Please indicate how the test categorized CCC1OCC(COc2ccc(Oc3ccccc3)cc2)O1 (stereo unspecified) .
Out: inactive

---

experimentDescription: A CellTox Green Cytotoxicity Assay to monitor cytotoxicity in HEK293 cells - 24 hour (AID 1224875); note: nearly all actives have a fitted effect of over 45% in size
conditionSummary: CellTox Green fluorescence; series mostly up to 76.8 µM
Records with an inconclusive call do not appear. Calls of active or inactive are those of the source. Calls come from the whole dose curve; as a rule, active = well fitted activation curve with a large enough effect in the repeat runs; inconclusive = weak or mixed curves; inactive = flat fitted curve, though single readings scatter.
# valid calls are 1 (yes) for active, 0 (no) for inactive; nothing else

CCCCCCCCCCCCCC[P+](CCCC)(CCCC)CCCC (tested in a mixture with another compound) :: 1 (yes)
O=C(c1ccc(F)cc1)C1CCN(CCn2c(=O)[nH]c3ccccc3c2=O)CC1 :: 0 (no)
N=C1N=C(N)c2ccccc21 :: 0 (no)
CCCCCCCCCCCC(=O)NCCCN(C)C :: 1 (yes)
C[n+]1cc2c3c(ccc2c2ccc4cc5c(cc4c21)OCO5)OCO3 :: 1 (yes)

Alright, here's another compound for you.
In: Please indicate how the test categorized Cc1ccc(O)c(C(C)(C)C)c1 .
Out: 1 (yes)

---

experimentDescription: qHTS RealTime-Glo MT Cell Viability Assay in HepG2 cells - 24 hour (AID 1224867); note: nearly all actives have a fitted effect of over 50% in size
conditionSummary: RealTime-Glo luminescence; series mostly up to 76.8 µM
Results filed as inconclusive are left out. Activity calls are given as the source filed them. Calls come from the whole dose curve; as a rule, active = well fitted cell-killing curve with a large enough effect in the repeat runs; inconclusive = weak or mixed curves; inactive = flat fitted curve, though single readings scatter.
# valid calls are yes = active, no = inactive; nothing else

Worked examples follow.
O=C(Nc1cccc(Cl)c1)OCC#CCCl :: yes
CCCCCCCCCCCC[N+](C)(C)CCCCCCCCCCCC :: yes
CCCCC(CC)COC(=O)c1ccccc1C(=O)O (configuration not stated) :: no
C/C(=C(/OCCOc1ccc(Cl)cc1)c1ccc(Cl)cc1Cl)n1ccnc1 :: no
COC(=O)C1=C(C)NC(C)=C(C(=O)OCC(C)C)C1c1ccccc1[N+](=O)[O-] (configuration not stated) :: yes

In: Please indicate how the test categorized O=C(N/N=C/c1ccccc1O)c1ccncc1 .
Out: no

In: Please indicate how the test categorized NNc1nc(-c2ccc(N)cc2)cs1 .
Out: no

In: Please indicate how the test categorized O=C(c1ccc(F)cc1)C1CCN(CCn2c(=O)[nH]c3ccccc3c2=O)CC1 .
Out: no

In: Please indicate how the test categorized CCCCCCCC(=O)[O-].CCCCCCCC(=O)[O-].[Zn+2] .
Out: no

In: Please indicate how the test categorized CNC(=O)c1ccccc1 .
Out: no

In: Please indicate how the test categorized CN1CCN(CCC(=O)N2c3ccccc3Sc3ccc(C(F)(F)F)cc32)CC1 .
Out: yes

In: Please indicate how the test categorized CCCCc1oc2ccc(NS(C)(=O)=O)cc2c1C(=O)c1ccc(OCCCN(CCCC)CCCC)cc1 .
Out: yes

In: Please indicate how the test categorized O=C(c1ccc(O)cc1O)c1ccc(O)cc1O .
Out: no

In: Please indicate how the test categorized CCCCCCCCCCCCCCCC[N+](C)(C)CCN(Cc1ccc(OC)cc1)c1ncccn1 .
Out: yes

In: Please indicate how the test categorized CN(C)CCCOC1(Cc2ccccc2)CCCCCC1 .
Out: no

In: Please indicate how the test categorized CCc1cc(Cc2cc(CC)cc(C(C)(C)C)c2O)c(O)c(C(C)(C)C)c1 .
Out: yes

In: Please indicate how the test categorized CCCC(c1cc(C(C)(C)C)c(O)cc1C)c1cc(C(C)(C)C)c(O)cc1C .
Out: yes

In: Please indicate how the test categorized C[n+]1cc2c3c(ccc2c2ccc4cc5c(cc4c21)OCO5)OCO3 .
Out: yes

In: Please indicate how the test categorized CC1(C)CCC(C)(C)c2cc(C(=O)Nc3ccc(C(=O)O)cc3)ccc21 .
Out: no

In: Please indicate how the test categorized CC(C)(C)C1CCC(CC2=C(O)c3ccccc3C(=O)C2=O)CC1 (configuration not stated) .
Out: no

In: Please indicate how the test categorized NC(=O)CC[C@@H]1NC(=O)[C@H](Cc2ccccc2)NC(=O)[C@H](Cc2ccc(O)cc2)NC(=O)CCSSC[C@@H](C(=O)N2CCC[C@H]2C(=O)N[C@@H](CCCN=C(N)N)C(=O)NCC(N)=O)NC(=O)[C@H](CC(N)=O)NC1=O .
Out: no

In: Please indicate how the test categorized OC1(c2ccc(Cl)c(C(F)(F)F)c2)CCN(CCCC(c2ccc(F)cc2)c2ccc(F)cc2)CC1 .
Out: yes

---

experimentDescription: qHTS assay for small molecule activators of the heat shock response signaling pathway - cell viability counter screen (AID 743209); note: nearly all actives have a fitted effect of over 50% in size
conditionSummary: HSE-bla HeLa viability, CellTiter-Glo luminescence, 5 h; series mostly up to 62.6 µM
Results filed as inconclusive are left out. Active and inactive are the calls of the source. The call rests on the fitted dose curve; in most records, active means well fitted cell-killing curve with a large enough effect in the repeat runs; inconclusive means weak or mixed curves, or effect the other way; inactive means no such curve, though single readings can be large or run the other way.
# valid calls are active, inactive; nothing else

CCCC(c1cc(C(C)(C)C)c(O)cc1C)c1cc(C(C)(C)C)c(O)cc1C :: active
CCCCCCCC[P+](CCCCCCCC)(CCCCCCCC)CCCCCCCC :: active
CCOC(=O)O[C@]1(C(=O)OCCl)CC[C@H]2[C@@H]3CCC4=CC(=O)C=C[C@]4(C)[C@H]3[C@@H](O)C[C@@]21C :: inactive
OCc1c[nH]c2ccccc12 :: inactive
CCC(Cl)C(Cl)C(Cl)CC(Cl)C(Cl)C(C)Cl (configuration not stated) :: inactive
NNC(=O)c1cccc(C(=O)NN)c1 :: inactive
Fc1ccc([C@@H]2CCNC[C@H]2COc2ccc3c(c2)OCO3)cc1 :: inactive
CC1=NC(C)OC1C (configuration not stated) :: inactive
CCN1/C(=C/C=C/c2sc3ccccc3[n+]2CC)Sc2ccccc21 :: active
O=C(OCC1CO1)C1CCCCC1C(=O)OCC1CO1 (configuration not stated) :: inactive

In: Please indicate how the test categorized Clc1ccc2cc3ccccc3cc2c1 .
Out: inactive

In: Please indicate how the test categorized O=C(Nc1cccc(Cl)c1)OCC#CCCl .
Out: active

In: Please indicate how the test categorized COc1cc(-c2ccc(N=C=O)c(OC)c2)ccc1N=C=O .
Out: inactive

In: Please indicate how the test categorized CC(C)(C)C1CCC(CC2=C(O)c3ccccc3C(=O)C2=O)CC1 (configuration not stated) .
Out: inactive

In: Please indicate how the test categorized O=C(NO)C1(NS(=O)(=O)c2ccc(Oc3ccc(F)cc3)cc2)CCOCC1 .
Out: inactive

In: Please indicate how the test categorized C=CC(=O)OCC(CO)(COCC(COC(=O)C=C)(COC(=O)C=C)COC(=O)C=C)COC(=O)C=C .
Out: active

---

experimentDescription: qHTS RealTime-Glo MT Cell Viability Assay in HEK293 cells - 8 hour (AID 1224887); note: nearly all actives have a fitted effect of over 50% in size
conditionSummary: RealTime-Glo luminescence; series mostly up to 76.8 µM
Inconclusive results are not listed. Calls of active or inactive are those of the source. Calls follow the shape of the dose curve; as a rule, active = well fitted cell-killing curve with a large enough effect in the repeat runs; inconclusive = weak or mixed curves, or effect the other way; inactive = flat fitted curve, though single readings scatter.
# valid calls are active, inactive; nothing else

Worked examples follow.
CCCN(CCC)C(=O)C(CCC(=O)OCCCN1CCN(CCOC(=O)Cc2c(C)n(C(=O)c3ccc(Cl)cc3)c3ccc(OC)cc23)CC1)NC(=O)c1ccccc1 (configuration not stated) :: active
CCCCCCCCNC(C)C(O)c1ccc(SC(C)C)cc1 (configuration not stated) :: active
c1cc(C(c2ccc(OCC3CO3)cc2)c2ccc(OCC3CO3)cc2)ccc1OCC1CO1 (configuration not stated) :: inactive
COc1cccc(N)c1 :: inactive
Oc1ccc(Cl)cc1Sc1cc(Cl)ccc1O :: active

In: Please indicate how the test categorized O=C(NO)C1(NS(=O)(=O)c2ccc(Oc3ccc(F)cc3)cc2)CCOCC1 .
Out: inactive

In: Please indicate how the test categorized Cc1[nH]nc2c1N=C(c1ccccc1Cl)c1cc([N+](=O)[O-])ccc1N2 .
Out: inactive

In: Please indicate how the test categorized CCCC(C)c1ccccc1O (configuration not stated) .
Out: inactive

In: Please indicate how the test categorized COc1c(C)c2c(c(O)c1C/C=C(\C)CCC(=O)O)C(=O)OC2 .
Out: inactive

In: Please indicate how the test categorized CCc1cc(Cc2cc(CC)c(N)c(CC)c2)cc(CC)c1N .
Out: active

In: Please indicate how the test categorized CC(=O)SC[C@@H](Cc1ccccc1)C(=O)NCC(=O)OCc1ccccc1 .
Out: inactive

In: Please indicate how the test categorized CC(C)(C)C(=O)OCOC(=O)C1N2C(=O)CC2S(=O)(=O)C1(C)C (configuration not stated) .
Out: inactive

In: Please indicate how the test categorized c1ccc(CSCc2ccccc2)cc1 .
Out: inactive

In: Please indicate how the test categorized Cc1cccc(CN2CCN(C(c3ccccc3)c3ccc(Cl)cc3)CC2)c1 (configuration not stated) .
Out: inactive

In: Please indicate how the test categorized COc1cccc2c1C(=O)c1c(O)c3c(c(O)c1C2=O)C[C@@](O)(C(=O)CO)C[C@@H]3O[C@H]1C[C@H](N)[C@H](O[C@@H]2CCCCO2)[C@H](C)O1 .
Out: inactive

In: Please indicate how the test categorized OCCCCCCCCCCCCBr .
Out: inactive

In: Please indicate how the test categorized C/C=C1/C(=O)C[C@H]2[C@@H]3CCC4=CC(=O)CC[C@]4(C)[C@H]3CC[C@]12C .
Out: active
